Biological target: T1, cSNK:BSA conjugate (bovine, head-to-tail cyclized; conjugated to BSA carrier)
T1 construct: also called BSA-cSNK
T1 sequence (P02769 25-607 limits assumed): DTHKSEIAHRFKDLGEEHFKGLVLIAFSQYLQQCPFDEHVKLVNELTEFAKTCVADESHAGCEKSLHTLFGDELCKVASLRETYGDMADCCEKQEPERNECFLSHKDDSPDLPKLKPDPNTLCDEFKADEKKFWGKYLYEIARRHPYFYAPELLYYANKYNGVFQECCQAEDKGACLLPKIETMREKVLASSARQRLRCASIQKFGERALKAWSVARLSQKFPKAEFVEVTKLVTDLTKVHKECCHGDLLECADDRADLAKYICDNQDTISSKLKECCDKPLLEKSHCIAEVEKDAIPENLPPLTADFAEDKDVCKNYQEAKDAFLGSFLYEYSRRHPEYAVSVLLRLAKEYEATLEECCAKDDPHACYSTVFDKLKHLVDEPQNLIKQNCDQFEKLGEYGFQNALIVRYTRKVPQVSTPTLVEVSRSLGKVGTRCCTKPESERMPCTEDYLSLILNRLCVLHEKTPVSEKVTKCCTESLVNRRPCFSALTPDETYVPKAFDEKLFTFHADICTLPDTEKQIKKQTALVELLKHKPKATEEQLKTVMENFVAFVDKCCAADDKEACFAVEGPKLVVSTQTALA
Test: BLI 2:1 fit, site 2 (KD2); 6.25 nM row
QUANTITY_NAME: Kd
For clarity, give the value followed by its unit.

[in] Value lookup for Kd; key = murine monoclonal antibody 5E3 (antibody, V domains shown, mouse antibody of the 5E3 hybridoma; also called murine 5E3; m5E3) VH: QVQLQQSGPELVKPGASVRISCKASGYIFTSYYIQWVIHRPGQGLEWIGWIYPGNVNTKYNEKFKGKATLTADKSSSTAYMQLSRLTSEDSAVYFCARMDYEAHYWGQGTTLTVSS VL: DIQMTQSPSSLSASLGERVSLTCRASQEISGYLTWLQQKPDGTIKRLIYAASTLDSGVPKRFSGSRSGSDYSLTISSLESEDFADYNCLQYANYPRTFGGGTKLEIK
[out] 1.59 nM

[in] Ok, now hu5E3-IgG2 (antibody, V domains shown, human IgG2/kappa; also called humanized 5E3 IgG2) VH: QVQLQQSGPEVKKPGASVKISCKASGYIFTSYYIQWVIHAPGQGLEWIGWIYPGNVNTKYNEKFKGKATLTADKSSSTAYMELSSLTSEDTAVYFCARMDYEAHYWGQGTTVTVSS VL: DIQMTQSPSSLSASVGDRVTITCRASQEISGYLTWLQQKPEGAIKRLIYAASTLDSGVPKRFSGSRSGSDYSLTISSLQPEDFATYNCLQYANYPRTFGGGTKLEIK
[out] 6.39 nM

[in] Ok, now hu5E3-IgG1 (antibody, V domains shown, human IgG1/kappa; also called humanized 5E3 IgG1; IHA variant) VH: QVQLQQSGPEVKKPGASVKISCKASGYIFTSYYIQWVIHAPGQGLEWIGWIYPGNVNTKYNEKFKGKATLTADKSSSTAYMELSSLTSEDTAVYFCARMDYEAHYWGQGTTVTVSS VL: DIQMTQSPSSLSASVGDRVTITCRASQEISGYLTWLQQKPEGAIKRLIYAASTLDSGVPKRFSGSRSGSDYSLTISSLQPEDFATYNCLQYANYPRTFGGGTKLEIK
[out] 1.82 nM
